# System under test: Neurogenic locus notch homolog protein 2 (Homo sapiens)
# Method: Notch2 binders on small-molecule microarrays, primary screen, biochemical, small-molecule microarray, 635 nm fluorescence, stem cell growth factors (AID 1073)
# Assay conditions: Notch2 binding, higher = more signal
Given measured composite z-score, output Condition met if it is greater than or equal to 1 and Condition not met if not.

Query: # bool: composite z-score of CC1(C)C(=O)C(c2ccccc2)=C2CN3C(=O)N(CCc4ccccc4)C(=O)C3(Cc3ccc(C(F)(F)F)cc3)C=C21 (stereo not given) >= 1
Reply: Condition met

Query: // repeat for COc1ccc(C(O)C2C=CC3C(=O)N(c4ccccc4)C(=O)C3N2Nc2ccc(C(C)C)cc2)c2ccccc12 (stereo not given) and report
Reply: Condition met

Query: // repeat for O=C1O[C@H](c2ccccc2)[C@H](c2ccccc2)N2[C@H]1[C@@H](C(=O)Nc1nc3ccccc3s1)[C@]1(C(=O)Nc3ccc(C#CC4=CCCCC4)cc31)[C@H]2c1ccc(O)cc1 and report
Reply: Condition not met

Query: // repeat for CN(C)C(=O)[C@@]1(CCC(=O)OC(C)(C)C)N=C(c2ccc(OCCCO)cc2)O[C@H]1c1ccccc1CN=[N+]=[N-] and report
Reply: Condition met

Query: // repeat for C=C(COC)/C(=C/C[C@H](OC(C)=O)c1cccc(OCCO)c1)c1cnc2ccccc2c1 and report
Reply: Condition met

Query: // repeat for O=C1C2C=CC(C(O)c3ccco3)N(Nc3ccccc3)C2C(=O)N1c1ccccc1 (stereo not given) and report
Reply: Condition not met

Query: // repeat for Cc1ccc(C(C)CC(O)C2C=CC3C(=O)N(c4ccccc4)C(=O)C3N2Nc2ccc(C#N)cc2)o1 (stereo not given) and report
Reply: Condition met

Query: // repeat for COc1ccc([Si](C)(C)[C@@H]2[C@@H](CC(=O)N3Cc4ccccc4C[C@H]3CO)O[C@]3(C(=O)N(c4ccccc4)c4ccccc43)[C@H]2C)cc1 and report
Reply: Condition not met

Query: // repeat for COCCOC(=O)N1C(=O)[C@@]2(c3cc(C#CCNC(N)=O)ccc31)[C@H](c1ccc(OCCO)cc1)N1[C@H](c3ccccc3)[C@H](c3ccccc3)OC(=O)[C@H]1[C@@H]2C(=O)NC[C@H](O)c1ccccc1 and report
Reply: Condition met

Query: // repeat for CCOC(=O)C1=CCN(S(=O)(=O)c2ccc(C)cc2)C1c1ccccc1 (stereo not given) and report
Reply: Condition met

Query: // repeat for Cc1ccc([C@H]2C(C(=O)O)=C[C@@H](C(C)(C)C)N2S(=O)(=O)c2ccc(C)cc2)cc1 and report
Reply: Condition met

Query: // repeat for CC(C)[C@H]1NC(=O)[C@@]23C(=O)N[C@@H](Cc4ccccc4)C2[C@H](C)[C@@]2(C)O[C@H]2C3/C=C/C/C=C\CNC(=O)[C@H](Cc2ccccc2)NC1=O (stereo not given in full) and report
Reply: Condition not met

Query: // repeat for CC(C)C(=C=CC[C@@H](O)c1cccc(OCCO)c1)C[C@@H](O)COCc1ccccc1 and report
Reply: Condition not met

Query: // repeat for O=c1cccc(-c2ccco2)o1 and report
Reply: Condition not met

Query: // repeat for [N-]=[N+]=Nc1ccccc1C[C@]1(C(=O)O)N=C(c2ccc(OCCCO)cc2)O[C@H]1c1ccccc1 and report
Reply: Condition not met

###

Provide the reported z-score of each item.
# System under test: NADPH oxidase 2 (Homo sapiens)
# Method: NOX2-dependent H2O2 signal modulators, primary screen, NOX inhibitor project, cell-based, HEK293-NOX2, PMA-stimulated, Amplex Red fluorescence (AID 1159); also: test concentration not given here
# Assay conditions: 45 min, higher = more signal, called active from +8 up or from −8 down
Just the number.

Query: Which measured z-score value corresponds to C=CCC(OC(C)=O)[C@@H]1[C@@H](N(Cc2ccc(-c3cccc(C(F)(F)F)c3)o2)C(=O)c2cccc3ccccc23)c2cc(OCCCO)ccc2N1C(=O)Cc1ccc(OC)cc1 (some centres undefined) ?
Reply: -3.21

Query: // repeat for O=C(CS)NCCCCCCNC(=O)[C@@H]1C[C@@H]2C(=O)NCC(=O)N2[C@@H]1c1ccc(O)cc1 and report
Reply: 0.266

Query: // repeat for CC(C)[C@H]1NC(=O)[C@@]23C(=O)N[C@@H](Cc4ccccc4)C2[C@H](C)[C@@]2(C)O[C@H]2C3/C=C/CCC/C=C/CNC(=O)[C@H](Cc2ccccc2)NC1=O (some centres undefined) and report
Reply: 1.46

Query: // repeat for CN1C(=O)[C@@H]2[C@@H](CC(COc3ccccc3)=C([C@H](O)CCc3ccccc3)[C@@H]2CO)C1=O and report
Reply: -0.561

Query: // repeat for [N-]=[N+]=Nc1ccccc1C[C@@]1(C(=O)O)N=C(c2ccc(OCCCO)cc2)O[C@@H]1c1ccccc1N=[N+]=[N-] and report
Reply: -0.041

Query: // repeat for CCCNC(=O)[C@@]1(Sc2ccc(C)cc2)CC(=O)N(C(C)C)[C@@H]1c1ccc(CO)cc1I and report
Reply: 2.46

Query: // repeat for [N-]=[N+]=Nc1ccccc1C[C@]1(C(=O)NCc2ccccc2)COC(c2ccc(OCCCO)cc2)=N1 and report
Reply: -3.07

Query: // repeat for CC(C)N1CC=CC23O[C@@H]4/C=C\CCCOC(=O)C4[C@H]2C(=O)N(CCCCCCO)[C@@H]3C1=O (some centres undefined) and report
Reply: 1

Query: // repeat for CCOC(=O)C[C@H]1[C@H](OC(=O)c2ccc(-c3ccccc3)cc2)[C@@H](NC(=O)CC(C)C)c2cc(OCCCO)ccc2N1C(=O)c1ccccc1 and report
Reply: 0.403

Query: // repeat for Cc1ccc(S[C@]2(C(=O)NC(C)C)CC(=O)N(C(C)C)[C@@H]2c2ccc(CO)cc2I)cc1 and report
Reply: 1.8

Query: // repeat for [N-]=[N+]=NC[C@H](Cc1ccccc1)NC(=O)c1ccccc1 and report
Reply: 0.192

Query: // repeat for [N-]=[N+]=NCc1ccccc1[C@@H]1OC(c2ccc(OCCCO)cc2)=N[C@]1(Cc1ccccc1N=[N+]=[N-])C(=O)NCCN1CCOCC1 and report
Reply: -2.49

Query: // repeat for C=C(/C(=C/C[C@H](OC(=O)c1ccncc1)c1ccccc1OCCO)c1cnc2ccccc2c1)C(C)C and report
Reply: -1.71

Query: // repeat for CN(C)CCCC[C@@H]1NC(=O)[C@@H]2C[C@H](C(=O)O)[C@H](c3cccc(OCCO)c3)N2C1=O and report
Reply: 1.11

Query: // repeat for COCCOC(=O)N1C(=O)[C@@]2(c3cc(C#CCC(C(=O)OC)C(=O)OC)ccc31)[C@H](C(=O)NC[C@H](O)c1ccccc1)[C@H]1C(=O)O[C@H](c3ccccc3)[C@H](c3ccccc3)N1[C@@H]2c1ccc(OCCO)cc1 and report
Reply: 1.41

Query: // repeat for COC(=O)C1=CC(CCCO)=CC(c2ccc(CN3CCCC3)cc2)N(Cc2cc3c(cc2Br)OCO3)C=C1C(=O)OC (centres undefined) and report
Reply: 1.64

Query: // repeat for CN(C)CCCCNC(=O)[C@H]1C[C@H]2C(=O)N[C@@H](CCCC[N+](C)(C)C)C(=O)N2[C@H]1c1ccc(O)cc1 and report
Reply: 0.622

Query: // repeat for COC(=O)[C@@]1(Cc2ccccc2)[C@H]2c3cc(C(=O)N4CCCC4)n(CCSCCO)c3C[C@H]2CN1C(=O)c1ccccc1 and report
Reply: 0.957

Query: // repeat for O=C1C2C=CC(C(O)c3ccc(I)cc3)N(Nc3ccccc3)C2C(=O)N1c1ccccc1 (centres undefined) and report
Reply: -1.88

Query: // repeat for COc1cc(NN2C(C(O)c3cc(OC)c(OC)c(OC)c3)C=CC3C(=O)N(c4ccccc4)C(=O)C32)cc(OC)c1OC (centres undefined) and report
Reply: -3.35

Query: // repeat for COCCCNC(=O)[C@@]1(Sc2ccc(C)cc2)CC(=O)N(C(C)C)[C@@H]1c1ccc(CO)cc1I and report
Reply: 1.77

Query: // repeat for COCCOC(=O)N1C(=O)[C@@]2(c3cc(C#CC4(O)CCCCCC4)ccc31)[C@H](c1ccc(OCCO)cc1)N1[C@H](c3ccccc3)[C@H](c3ccccc3)OC(=O)[C@H]1[C@@H]2C(=O)Nc1nc2ccccc2s1 and report
Reply: 0.549

Query: // repeat for C=C(COC)/C(=C/C[C@@H](OC(=O)c1ccncc1)c1ccccc1OCCO)c1cc(C(=O)OC)ccc1OC and report
Reply: -0.97

Query: // repeat for [N-]=[N+]=Nc1ccccc1C[C@]1(C(=O)O)N=C(c2ccc(OCCCO)cc2)O[C@H]1c1ccccc1N=[N+]=[N-] and report
Reply: -2.72

Query: // repeat for O=C1O[C@H](c2ccccc2)[C@H](c2ccccc2)N2[C@H]1[C@@H](C(=O)O)[C@]1(C(=O)Nc3ccc(C#CC4(O)CCCCCC4)cc31)[C@H]2c1ccc(O)cc1 and report
Reply: 0.867

Query: // repeat for CCN(CC)c1ccc(N2CC=CC34O[C@@H]5/C=C\CCC(C)OC(=O)C5[C@H]3C(=O)N(C(C)CO)[C@@H]4C2=O)cc1 (some centres undefined) and report
Reply: 0.33

Query: // repeat for CCC(CC)C(O)C1C=CC2C(=O)N(c3ccccc3)C(=O)C2N1Nc1ccc([N+](=O)[O-])cc1 (centres undefined) and report
Reply: -0.272

Query: // repeat for COc1ccc(C(O)C2C=CC3C(=O)N(c4ccccc4)C(=O)C3N2Nc2ccc(C(C)C)cc2)c2ccccc12 (centres undefined) and report
Reply: 0.373

Query: // repeat for COC(=O)[C@@]1(Cc2ccc(F)cc2)[C@H]2c3cc(C(=O)N4CCCC4)n(C)c3C[C@H]2CN1C(=O)c1ccccc1 and report
Reply: 0.282
